# Test system: IL-1b
# TEST: Human Monocyte IL-1b Assay
# Format: cell-based
# PROTOCOL CONDITIONS: fresh human whole blood; compound 0.5 h, 100 ng/mL LPS 3.5 h at 37° C., 5 mM ATP 45 min; IL-1b in supernatant by ELISA
pIC50: −log10 of the molar value.
PROPERTY LABEL: pIC50

MOLECULE: CN1CCC[C@@H]([C@@H](O)c2nnc(-c3ccc(C(F)(F)F)cc3O)c3c2CCC3)C1 (racemic) [Compound 43B]
pIC50: 5.52 to 6.30

Here's the next entry for you.
Give the reported pIC50 for CN1CCC[C@@H]([C@@H](O)c2nnc(-c3ccc(C(F)(F)F)cc3O)c3c2CCC3)C1 (racemic) [Compound 44] (system: IL-1b). > 6.30
